# System: Fer (mouse);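 also: 11-residue human phosphosite peptides and single-mutation variants displayed on the E. coli surface, counted by deep sequencing, each peptide's frequency after selection divided by its frequency in the unselected input library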;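 also: frequency after pTyr selection over input frequency; kinase dosed for 20-30% of maximal phosphorylation in three min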
# test.protocol: phosphorylation enrichment, bacterial display (enrichment ratio); higher = better substrate or ligand; peptides without Tyr show the background
measured.parameter: phosphorylation enrichment

{"primary.sequence": "SFPPTYRYERG [INPPL1_Y661]", "test.target": "Fer (mouse)", "recorded.measurement": 0.29}
{"primary.sequence": "LYNQDYPIHCV [GATM_Y227_S231C]", "test.target": "Fer (mouse)", "recorded.measurement": 0.632}
{"primary.sequence": "VNNTVYGIDAM [EIF3J_Y143_A141T]", "test.target": "Fer (mouse)", "recorded.measurement": 0.423}
{"primary.sequence": "MAFDRYAAICS [OR8H2_Y123_H120Y_YF]", "test.target": "Fer (mouse)", "recorded.measurement": 0.597}
{"primary.sequence": "VIKDKYPKARY [APTX_Y209]", "test.target": "Fer (mouse)", "recorded.measurement": 0.426}
